Exercise: state measured Stimulation index at 1600 nM OA antibody for each of the binders provided.
- test.system: human plasma-derived FIXa (Haematologic Technologies Inc) (human, UniProt P00740 47-191; P00740 227-461)
- Sequence (P00740 47-191, chain 1 of 2): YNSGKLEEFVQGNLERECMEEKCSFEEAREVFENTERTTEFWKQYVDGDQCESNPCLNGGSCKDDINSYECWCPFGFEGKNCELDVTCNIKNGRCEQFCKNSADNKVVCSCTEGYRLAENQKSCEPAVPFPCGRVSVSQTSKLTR
- Sequence (P00740 227-461, chain 2 of 2): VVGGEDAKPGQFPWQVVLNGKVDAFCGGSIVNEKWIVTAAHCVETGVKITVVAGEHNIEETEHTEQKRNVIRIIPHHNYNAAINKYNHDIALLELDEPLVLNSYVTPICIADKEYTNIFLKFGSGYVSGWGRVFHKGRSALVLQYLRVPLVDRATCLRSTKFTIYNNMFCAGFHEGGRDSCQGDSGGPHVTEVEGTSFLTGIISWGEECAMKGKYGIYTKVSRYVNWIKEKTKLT
- protocol: cell-based or functional assay
Quote the value and follow it with the unit of measurement.

Lookup result for mAb5-0900 (monovalent one-armed version of mAb1-8459) (antibody, V domains shown) VH: EVQLVESGGGLVQPGRSLKLSCAASGFTFDDYAMHWVRQVPGKGLEWVSGISWRGDIIGYVKSVKGRFTISRDNAKNSLYLQLNSLRIEDTALYYCVKSYGSGSFYNAFDSWGQGTLVTVSS VL: DIQMTQSPSTLSASAGDRVTITCRASKSISSWLAWYQQKPGKAPKFLIYKAERLERGVPSRFSGSGSGTEFSLTISSLQPDDFATYYCLEYSSYIRTFGQGTKVEIK ; measured Stimulation index at 1600 nM OA antibody: 799 fold

Lookup result for mAb5-0908 (monovalent one-armed version of mAb1-8467) (antibody, V domains shown) VH: EVQLVESGGGLVQPGRSLKLSCAASKFRFDDYAMHWVRQVPGKGLEWVSGISWRGDIIGYVDSVKGRFTISRDNEKNSLYLQLNSLRAEDTALYYCVKSYGSGSFYNAFDSWGQGTLVTVSS VL: DIQMTQSPSTLSASAGDRVTITCRASKSISSWLAWYQQKPGKAPKFLIYKASRLERGVPSRFSGSGSGTEFSLTISSLQPDDFATYYCLEYSSYIRTFGQGTKVEIK ; measured Stimulation index at 1600 nM OA antibody: 1020 fold

Lookup result for mAb5-1528 (monovalent one-armed version of mAb1-9058) (antibody, V domains shown) VH: EVQLVESGGGLVQPGRSLKLSCAASGFTFHDYAMHWVRQVPGKGLEWVSGISWRGDIIGYVDSVKGRFTISRDNAKNSLYLQLNSLRAEDTALYYCVKSYGSGSFYNAFDSWGQGTLVTVSS VL: DIQMTQSPSTLSASAGDRVTISCRASQSISSWLAWYQQKPGKAPKFLIYKASRLDRGVPSRFSGSGSGTEFTLTISSLQPDDFATYYCLEYNSYIRTFGQGTKVEIK ; measured Stimulation index at 1600 nM OA antibody: 531 fold

// data source = patent US20250011468A1
